The reported numbers originate from patent US10975083B2.

Target: DβH (Homo sapiens, UniProt P09172)
Construct: reaction mixture (total volume 500 μl) contained: cellular homogenate (75 μg total protein); host or cells: SK-N-SH cell homogenate
Sequence (P09172 1-617): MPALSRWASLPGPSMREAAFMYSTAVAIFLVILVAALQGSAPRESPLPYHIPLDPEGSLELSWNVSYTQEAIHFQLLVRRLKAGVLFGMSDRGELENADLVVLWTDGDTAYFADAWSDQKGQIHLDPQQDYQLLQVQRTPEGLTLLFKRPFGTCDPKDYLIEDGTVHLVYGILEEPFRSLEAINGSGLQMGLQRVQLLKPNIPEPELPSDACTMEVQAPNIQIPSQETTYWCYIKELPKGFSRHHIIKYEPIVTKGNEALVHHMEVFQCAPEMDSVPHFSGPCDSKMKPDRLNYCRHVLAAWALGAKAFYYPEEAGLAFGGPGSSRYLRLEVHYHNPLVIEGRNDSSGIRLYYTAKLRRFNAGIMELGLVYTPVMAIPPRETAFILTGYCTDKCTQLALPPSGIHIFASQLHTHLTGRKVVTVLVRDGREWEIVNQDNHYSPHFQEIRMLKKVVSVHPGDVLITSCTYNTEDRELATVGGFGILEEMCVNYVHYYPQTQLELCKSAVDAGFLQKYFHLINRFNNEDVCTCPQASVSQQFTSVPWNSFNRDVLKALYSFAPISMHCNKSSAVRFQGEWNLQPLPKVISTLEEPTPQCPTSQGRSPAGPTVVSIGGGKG
Assay: DβH inhibition cell assay (SK-N-SH cellular homogenates, tyramine to octopamine)
Assay type: biochemical
Conditions: inhibitor 10 μM; SK-N-SH cell homogenate; read-out: DβH activity in % of Ctrl (10 μM)
For each of the molecules below, state its remaining activity at 10 µM.
Numbers only, in %.

Solved cases (2 shown):
{"columns": ["MOLECULE", "TARGET DESC", "remaining activity at 10 µM, %"],
 "data": [
  ["Cc1ccccc1C1CCN(C(N)=S)C1 (stereo not drawn) [Example 13, 3-o-tolylpyrrolidine-1-carbothioamide]", "DβH (Homo sapiens, UniProt P09172)", 7.2],
  ["NC(=S)N1CCCC(c2ccccc2)C1 (stereo not drawn) [Example 4, 3-phenylpiperidine-1-carbothioamide]", "DβH (Homo sapiens, UniProt P09172)", 18.6]
]}

# next molecule below
// query remaining activity at 10 µM value for entry S=C1NCC2CC(c3ccccc3)CN12 (stereo not drawn) [Example 44] 13.7

---

Target: DβH (Homo sapiens, UniProt P09172)
Construct: reaction mixture (total volume 500 μl) contained: cellular homogenate (75 μg total protein); host or cells: SK-N-SH cell homogenate
Assay: DβH inhibition cell assay (SK-N-SH cellular homogenates, tyramine to octopamine)
Assay type: biochemical
Conditions: inhibitor 0.1 μM; SK-N-SH cell homogenate; read-out: DβH activity in % of Ctrl (0.1 μM)
OBSERVABLE: remaining activity at 0.1 µM (%)
One number for each entry, in %.

{"columns": ["MOLECULE", "TARGET DESC", "remaining activity at 0.1 µM / %"],
 "data": [
  ["CC1(c2ccccc2)CCN(C(N)=S)C1 (stereo not drawn) [Example 7]", "DβH (Homo sapiens, UniProt P09172)", 84.8],
  ["Fc1ccc(Br)c(F)c1[C@@H]1Cc2c[nH]c(=S)n2C1 [Example 117]", "DβH (Homo sapiens, UniProt P09172)", 6.4]
]}

Please state remaining activity at 0.1 µM for every molecule in the list that follows.
1. NC(=S)N1CCC(c2ccc(F)cc2F)C1 (stereo not drawn) [Example 5]
2. NC(=S)N1CCC(c2c(F)c(F)cc(F)c2F)C1 (stereo not drawn) [Example 23]
3. Fc1cc(F)cc([C@]23C[C@H]2c2c[nH]c(=S)n2C3)c1 [Example 54]
4. Cc1ccc(C2CCN(C(N)=S)C2)s1 (stereo not drawn) [Example 10]
5. NC(=S)N1CC[C@@H](c2cc(F)cc(F)c2)C1 [Example 25]
6. Fc1cccc(F)c1[C@H]1Cc2c[nH]c(=S)n2C1 [Example 87]
7. Fc1cc(F)c(F)c([C@H]2Cc3c[nH]c(=S)n3C2)c1F [Example 62]

83.2
5.9
44.3
54.9
46.1
36.5
43.1
